The binders listed here are annotated with their Kd.
Molecular target: T1, human SIRP-α v2 D1 domain (human)
T1 construct: also called human v2; human α v2
T1 sequence (chain, as listed by the source limits assumed): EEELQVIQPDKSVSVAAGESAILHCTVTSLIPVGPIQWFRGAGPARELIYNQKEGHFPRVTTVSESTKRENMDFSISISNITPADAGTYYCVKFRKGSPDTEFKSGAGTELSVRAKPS
Experiment: SPR, antibody immobilised on GLC chip

[
  {
    "binder": "AB119a (antibody, human IgG1, V domains shown, Full-length human IgG1 with L234A, L235A, G237A and N297A; only variable domains tied to the clone) VH: DVQLLESGGGVVQPGGSLRLSCAASGFSFSNFAMTWVRQAPGEGLEWVSTIGSGDTYYADSVKGRFTISRDNSKNTLYLQMNSLRAEDTAVYYCAKDSTVSWSGDFFDYWGLGTLVTVSS VL: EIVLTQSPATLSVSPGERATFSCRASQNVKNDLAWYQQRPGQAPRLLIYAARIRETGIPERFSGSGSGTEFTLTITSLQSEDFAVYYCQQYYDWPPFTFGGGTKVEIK",
    "Kd, nM": 0.0682
  },
  {
    "binder": "antibody 119 variant wt/mut (VL wt / VH mut) (antibody, human IgG1, V domains shown, Human IgG1 with L234A/L235A/G237A/N297A; Labels are in the order VL/VH) VH: EVQLLESGGGVVQPGGSLRLSCAASGFSFSNFAVTWVRQAPGKGLEWVSTIGSGDTYYADSVKGRFTISRDNSKNTLYLQMNSLRAEDTAVYYCAKDSTVSWSGDFFDYWGQGTLVTVSS VL: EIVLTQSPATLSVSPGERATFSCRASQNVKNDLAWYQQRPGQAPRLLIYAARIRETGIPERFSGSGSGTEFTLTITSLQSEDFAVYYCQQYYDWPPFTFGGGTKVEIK",
    "Kd, nM": 0.0694
  },
  {
    "binder": "AB119 Wt/wt with hIgG4 (antibody, V domains shown, Human IgG4 Fc region with S228P (EU numbering); only variable domains tied to the clone) VH: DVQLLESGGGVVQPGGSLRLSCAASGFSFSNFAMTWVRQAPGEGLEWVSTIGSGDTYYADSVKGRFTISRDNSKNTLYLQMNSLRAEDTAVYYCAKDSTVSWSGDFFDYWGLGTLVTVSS VL: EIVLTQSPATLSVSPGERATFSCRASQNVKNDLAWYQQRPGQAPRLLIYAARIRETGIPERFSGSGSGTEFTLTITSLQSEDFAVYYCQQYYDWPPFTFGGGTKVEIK",
    "Kd, nM": 0.0598
  },
  {
    "binder": "antibody 119 variant Mut/mut_V34M (antibody, human IgG1, V domains shown, Human IgG1 with L234A/L235A/G237A/N297A; Labels are in the order VL/VH) VH: EVQLLESGGGVVQPGGSLRLSCAASGFSFSNFAMTWVRQAPGKGLEWVSTIGSGDTYYADSVKGRFTISRDNSKNTLYLQMNSLRAEDTAVYYCAKDSTVSWSGDFFDYWGQGTLVTVSS VL: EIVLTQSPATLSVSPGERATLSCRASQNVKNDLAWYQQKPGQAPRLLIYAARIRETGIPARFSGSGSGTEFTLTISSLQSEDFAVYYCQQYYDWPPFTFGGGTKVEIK",
    "Kd, nM": 0.0688
  },
  {
    "binder": "antibody 119 variant mut/wt (VL mut all / VH wt) (antibody, human IgG1, V domains shown, Human IgG1 with L234A/L235A/G237A/N297A; Labels are in the order VL/VH) VH: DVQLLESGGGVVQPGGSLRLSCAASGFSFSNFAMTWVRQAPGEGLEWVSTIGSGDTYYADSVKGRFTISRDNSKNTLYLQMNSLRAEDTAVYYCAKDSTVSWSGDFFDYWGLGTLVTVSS VL: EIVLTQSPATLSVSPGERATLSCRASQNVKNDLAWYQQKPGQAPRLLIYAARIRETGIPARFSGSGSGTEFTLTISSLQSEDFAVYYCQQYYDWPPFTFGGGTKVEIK",
    "Kd, nM": 0.0864
  }
]
